Known IC50 of a selection of compounds
Target: ovine COX1 (Ovis aries, UniProt P05979)
Construct: purchased Cayman Chemical 560131 (kit)
Sequence (P05979 25-600): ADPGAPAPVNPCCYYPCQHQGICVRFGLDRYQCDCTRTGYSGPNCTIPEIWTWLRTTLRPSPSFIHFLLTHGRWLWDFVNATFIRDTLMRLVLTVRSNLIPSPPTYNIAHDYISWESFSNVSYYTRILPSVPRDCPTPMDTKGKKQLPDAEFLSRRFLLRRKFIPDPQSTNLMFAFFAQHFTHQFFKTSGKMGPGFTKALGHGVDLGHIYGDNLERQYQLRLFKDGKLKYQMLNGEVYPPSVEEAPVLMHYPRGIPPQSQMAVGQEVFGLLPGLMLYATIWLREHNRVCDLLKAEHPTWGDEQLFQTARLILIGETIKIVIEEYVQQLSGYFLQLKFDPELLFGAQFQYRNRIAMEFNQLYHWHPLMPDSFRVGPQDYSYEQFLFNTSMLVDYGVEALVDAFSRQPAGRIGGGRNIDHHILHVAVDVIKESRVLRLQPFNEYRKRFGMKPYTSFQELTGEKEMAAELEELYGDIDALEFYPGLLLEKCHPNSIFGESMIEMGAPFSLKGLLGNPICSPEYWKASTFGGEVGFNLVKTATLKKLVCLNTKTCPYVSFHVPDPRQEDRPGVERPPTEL
Experiment: COX inhibitor screening assay kit (Cayman No. 560131), COX1
Type: biochemical
Conditions: run in duplicate with three concentrations (50, 20, and 5 µM); read-out: The IC50 in µM of COX1
Write the value in µM as a bare number.

These solved cases illustrate the format of a correct answer.
1. O=C(O)Cc1cc2c(cc1C(=O)c1ccccc1)OCO2
1.45
2. O=C(O)Cc1cc2c(cc1C(=O)c1ccc(Cl)cc1Cl)OCO2
0.725
3. O=C(O)Cc1cc2c(cc1C(=O)c1ccccc1Br)OCO2
4.25

# next compound below
Quote IC50 reported for "O=C(O)Cc1cc2c(cc1C(=O)c1cccc(Br)c1)OCO2" please. 7.11
